The origin of these recorded values is patent US12290596B2.

- runDescription: Two-period crossover pharmacokinetics of nalmefene 3 mg IN vs 1.0 mg IM (Example 12)
- conditionsUsed: human, plasma, intramuscular, 1 mg, Median plasma concentration, Treatment B 1.0 mg IM; 0.500 h

compoundStructureString	unitsOfMeasure	concentration at 0.5 h
C=C1CC[C@@]2(O)[C@H]3Cc4ccc(O)c5c4[C@@]2(CCN3CC2CC2)[C@H]1O5	ng/mL	0.945

* * *

- runDescription: Three-treatment crossover pharmacokinetics of IN nalmefene, three dosing regimens (Example 13)
- conditionsUsed: human, plasma, other: intranasal (IN spray), 6 mg, […], Mean; Time 12.0; T3: 6 mg nalmefene HCl IN, two 0.1 mL sprays in one nostril

molecule	concentration at 12 h
C=C1CC[C@@]2(O)[C@H]3Cc4ccc(O)c5c4[C@@]2(CCN3CC2CC2)[C@H]1O5 [Nalmefene]	1.93 ng/mL
